- target.or.system: SpSla1-D3
- measurement.protocol: SPOT peptide array binding signal intensity (averaged, normalized) (arbitrary units (background-subtracted, floor 0; scale differs between SH3 domains)); higher = stronger binding of the SH3 domain to the peptide
outcome.measure: SPOT peptide array binding signal intensity

binder: MPAPPPPPPPPPGAF
result.modifier: ≤
endpoint.value: 0
--
binder: ISRRRLPVIMHRLKM
result.modifier: =
endpoint.value: 18.5
--
binder: NGRRRPKFRVQLSGN
result.modifier: =
endpoint.value: 43
--
binder: PPPPPPPPPPPLPQS
result.modifier: ≤
endpoint.value: 0
--
binder: PAPPPPPRASRPTPN
result.modifier: ≤
endpoint.value: 0
--
binder: LKRITSPPLPPRADS
result.modifier: =
endpoint.value: 1.5
--
binder: NSVPIMPTLPPRPYI
result.modifier: =
endpoint.value: 21.5
